experiment: Toxicity liver stage against HepG2, at 10uM; assay type: cell-based; parameters: test concentration 10 uM, cell line HepG2-A16-CD81EGFP; settings: human, HepG2-A16-CD81EGFP cells; read-out: INHIBITION
measured.endpoint: cytotoxicity at 10 µM (%)
Note: unit % is implicit; provide only the numeric part.

Prompt: Entry Cc1ncsc1C(=O)N1CCN(Cc2cscn2)CC1 has what cytotoxicity at 10 µM?
Completion: -2.65

Prompt: Let us now turn to Cc1ccc(-n2cc(C(=O)NCc3nnc4n3CCCCC4)nn2)cc1
Completion: -3.32

Prompt: Let us now turn to CCN(CC)CCNC(=O)CCc1c(C)nn(-c2cccc(Cl)c2)c1C
Completion: -5.34

Prompt: Let us now turn to Cc1nc(C)n(CC2CCCCN2c2ncnc3ccsc23)n1 (stereo not given)
Completion: -2.04

Prompt: Let us now turn to Cn1cccc1CN1CCC2(CC1)CC(Oc1cccnc1)C2
Completion: 13.4

Prompt: Let us now turn to COc1nc2c(cc1C(=O)NCc1nc(CSC)no1)CCC2
Completion: -11.7

Prompt: Let us now turn to CNC(=O)[C@@H]1C[C@@H](N)CN1Cc1cc2cc(C)cc(C)c2[nH]c1=O
Completion: -5.23

Prompt: Let us now turn to CCc1nccn1C1CCCN(C(=O)c2ccnc(C)n2)C1 (stereo not given)
Completion: -1.12

Prompt: Let us now turn to CN1CCOC(CNCC(=O)NCCCc2ccccc2)C1 (stereo not given)
Completion: -3.23

Prompt: Let us now turn to Cc1noc(C)c1CN1CCn2nc(CCC(=O)N3CCCC3)cc2C1
Completion: -4.52

Prompt: Let us now turn to N#Cc1cccc(OCC(=O)N(Cc2ccncc2)C2CC2)c1
Completion: -44.2

Prompt: Let us now turn to O=C([C@@H]1CCCO1)N1CCN(Cc2ccncc2)c2ncccc2C1
Completion: -95.7

Prompt: Let us now turn to Cn1ncc2c1CCCC2NCc1cccnc1 (stereo not given)
Completion: 0.999

Prompt: Let us now turn to CN(C)CCN1C(=O)CCCC12CCCN(Cc1ccc[nH]1)C2 (stereo not given)
Completion: -10.1

Prompt: Let us now turn to CN(C)C(=O)CN1C[C@H]2CC[C@@H](C1)N(Cc1c(F)cccc1Cl)C2
Completion: 5.48

---

assay: Toxicity liver stage against HepG2, at 10uM; type: cell-based; design: test concentration 10 uM, cell line HepG2-A16-CD81EGFP; conditions: human, HepG2-A16-CD81EGFP cells; read-out: INHIBITION
measured.endpoint: cytotoxicity at 10 µM (%)
Note: unit % is implicit; provide only the numeric part.

Examples with their reported cytotoxicity at 10 µM follow.
{"columns": ["compound", "readout.units", "reported.value"],
 "data": [
  ["Nc1cc(N2CCCC(CO)(Cc3ccccc3F)C2)nc(N)n1 (configuration not stated)", "%", 12.8],
  ["Cc1[nH]c2c(F)cccc2c1CC(=O)NCc1csc(N(C)C)n1", "%", -1.43],
  ["Cc1noc(C(C)N2CCN(CCC(=O)N3CCOCC3)CC2)n1 (configuration not stated)", "%", -0.0308],
  ["O=C(C[S+]([O-])Cc1c(F)cccc1Cl)N1CCc2sccc2C1 (configuration not stated)", "%", -0.784]
]}

Prompt: Entry O=C(Nc1cccnc1-n1cccn1)N1CCCC(N2CCCC2)C1 (configuration not stated) has what cytotoxicity at 10 µM?
Completion: 8.53

Prompt: Let us now turn to c1nc2c(c(NCCCn3cncn3)n1)CCN(CC1CCOC1)CC2 (configuration not stated)
Completion: -10.6

Prompt: Let us now turn to Cc1ccsc1CN1CC[C@H]2OCC[C@@]2(C(=O)N2CCCO2)C1
Completion: -4

Prompt: Let us now turn to O=C1CCC2(CCC(NCc3ccc4c(c3)OCO4)CC2)N1 (configuration not stated)
Completion: 1.97

Prompt: Let us now turn to CC(C)C(=O)NC1CCCN(C(=O)c2ccc(O)c(Cl)c2)C1 (configuration not stated)
Completion: -6.04

Prompt: Let us now turn to Cc1nnsc1C(=O)N1CCN(C(=O)C2CCC2)[C@@H]2CS(=O)(=O)C[C@@H]21
Completion: -2

Prompt: Let us now turn to COc1ccc(C(=O)N(C)Cc2cc(C)on2)c(F)c1
Completion: -5.2

Prompt: Let us now turn to COc1c(C2CCCN2CC(=O)N2CCCCC2)c(C)nn1C (configuration not stated)
Completion: 0.113

Prompt: Let us now turn to COc1cc(CNC(=O)Nc2nnc(C3CC3)s2)ccc1O
Completion: 31.3

Prompt: Let us now turn to CCCc1cc(C(=O)NC(c2ccccc2)c2n[nH]c(C)n2)[nH]n1 (configuration not stated)
Completion: 2.99

Prompt: Let us now turn to CC(C)NC(=O)N1CCCC(c2nnc(CN3CCOCC3)n2C)C1 (configuration not stated)
Completion: -0.392

Prompt: Let us now turn to c1cnc(N2CCO[C@H]3[C@H](OCCN4CCCC4)CC[C@@H]32)nc1
Completion: -11.8

Prompt: Let us now turn to CC(=O)Nc1nc(COc2nc(C)no2)cs1
Completion: -16.6

---

assay: Toxicity liver stage against HepG2, at 10uM; type: cell-based; design: test concentration 10 uM, cell line HepG2-A16-CD81EGFP; conditions: human, HepG2-A16-CD81EGFP cells; read-out: INHIBITION
Reported cytotoxicity at 10 µM values are given for each entry in this list.
Note: unit % is implicit; provide only the numeric part.

{"columns": ["molecule", "cytotoxicity at 10 µM [%]"],
 "data": [
  ["O=C(Nc1cccc(CN2CCOC2=O)c1)N1CCCCCC1", 18.6]
]}

Prompt: Entry Cc1ncsc1CN1CC[C@H]2OCC[C@@]2(C(=O)N2CCOCC2)C1 has what cytotoxicity at 10 µM?
Completion: 6.91

Prompt: Let us now turn to OCC(O)CN(CCN1CCOCC1)Cc1ccco1 (configuration not stated)
Completion: -4.7

Prompt: Let us now turn to Cc1ccc2nc(C3CCCN3C(=O)c3cc(=O)[nH]c(=O)[nH]3)[nH]c2c1 (configuration not stated)
Completion: 18.7

Prompt: Let us now turn to CC(=O)N1CCOCC2(CCCNC2)C1 (configuration not stated)
Completion: 0.081

Prompt: Let us now turn to COc1nccnc1N1C[C@H]2CC[C@@H](C1)N(CC=C(C)C)C2=O
Completion: 1.76

Prompt: Let us now turn to COC[C@H]1CC[C@H]2[C@H](CCN2C(=O)c2ccncc2F)O1
Completion: -4.61

---

assay: Toxicity liver stage against HepG2, at 10uM; assay type: cell-based; set-up: test concentration 10 uM, cell line HepG2-A16-CD81EGFP; details: human, HepG2-A16-CD81EGFP cells; read-out: INHIBITION
Reported cytotoxicity at 10 µM values are given for each entry in this list.
Note: unit % is implicit; provide only the numeric part.

Examples with their reported cytotoxicity at 10 µM follow.
{"columns": ["compound", "reported.value"],
 "data": [
  ["OC1CCN(C2CCN(c3ccc(Cn4ccnc4)cn3)CC2)CC1", -2.05],
  ["Cc1nc(N2CCCCC2)ncc1-c1cc(O)[nH]n1", 2.76],
  ["CCN(CC)c1ncccc1CNCc1ccc(Cl)s1", 10.6],
  ["COc1cc(C)c(C(C)Nc2ncc(C(N)=O)cc2Cl)cc1OC (stereo not drawn)", 2.76],
  ["Cc1ccc(CN2CC[C@H]3CO[C@H](CN4CCCC4)[C@H]3C2)o1", -115]
]}

Continue with the next compound.
Prompt: Entry Nc1nc(CN2CCOC(Cn3cncn3)C2)nc2ccccc12 (stereo not drawn) has what cytotoxicity at 10 µM?
Completion: -0.734

---

test: Toxicity liver stage against HepG2, at 10uM; format: cell-based; parameters: test concentration 10 uM, cell line HepG2-A16-CD81EGFP; settings: human, HepG2-A16-CD81EGFP cells; read-out: INHIBITION
Reported cytotoxicity at 10 µM values are given for each entry in this list.
Note: unit % is implicit; provide only the numeric part.

Prompt: Entry Cc1n[nH]cc1CNCC(c1ccsc1)N(C)C (stereo not drawn) has what cytotoxicity at 10 µM?
Completion: 3.05

Prompt: Let us now turn to CCOc1nnc(CN2CCC(N(C)Cc3noc(C)n3)C2)s1 (stereo not drawn)
Completion: -7.3

Prompt: Let us now turn to Cc1nc2c(c(N3CC=CC3)n1)CCN(Cc1ccoc1)CC2
Completion: -6.51

Prompt: Let us now turn to CCn1cc(CN(C)c2nc(C)c3ccc(S(C)(=O)=O)cc3n2)cn1
Completion: 48.8

Prompt: Let us now turn to COc1ncccc1CNc1cc(N2CCCC2CO)ncn1 (stereo not drawn)
Completion: -12.6
